Tested on: central muscarinic antagonist site
Format: binding, rat
Conditions: read-out: RQNB (1 μM) IC50
Where a name gives a salt, the structure may show the parent alone.
Readout: IC50 (µM)
Please give a number only; it is taken to be in µM.

// CNC(=O)N(C)CC#CCN1CCCC1 [Example 1a, hydrochloride] : IC50 value = 8.79
